Give measured MIC for each item. Keep answers brief.
# Test system: Mycobacterium tuberculosis
# TEST PROTOCOL: Antituberculosis activity against multi drug-resistant Mycobacterium tuberculosis after 7 days using resazurin dye by broth microdilution assay
# Type: functional
# RUN CONDITIONS: 168 h
Numbers only, in µM.

- COMPOUND: "FC(F)(F)c1cc(N/N=C/c2ccc3nonc3c2)c2cccc(C(F)(F)F)c2n1"
  TEST TARGET: "Mycobacterium tuberculosis"
  PARAMETER: "MIC"
  NUMERIC RESULT: 12.5

For every item in the list below, what is its measured MIC?
1. CO[C@H]1/C=C/O[C@@]2(C)Oc3c(C)c(O)c4c(O)c(c(/C=N/N5CCN(C)CC5)c(O)c4c3C2=O)NC(=O)/C(C)=C\C=C\[C@H](C)[C@H](O)[C@@H](C)[C@@H](O)[C@@H](C)[C@H](OC(C)=O)[C@@H]1C [RIFAMPIN]
2. Cn1nnc2cc(/C=N/Nc3cc(C(F)(F)F)nc4c(C(F)(F)F)cccc34)ccc21
3. FC(F)(F)c1cc(N/N=C/C2CCCCC2)c2cccc(C(F)(F)F)c2n1

Result:
[25, 25, 6.25]

====

Give measured MIC for each item. Keep answers brief.
# System: Mycobacterium tuberculosis
# TEST PROTOCOL: Antituberculosis activity against multi drug-resistant Mycobacterium tuberculosis after 7 days using resazurin dye by broth microdilution assay
# Type: functional
# RUN CONDITIONS: 168 h

- SMILES STR: "COCCNC(=S)NNc1cc(C(F)(F)F)nc2c(C(F)(F)F)cccc12"
  MIC: "25 µM"
- SMILES STR: "N#Cc1cccc(NC(=O)NNc2cc(C(F)(F)F)nc3c(C(F)(F)F)cccc23)c1"
  MIC: "> 50 µM"
- SMILES STR: "FC(F)(F)Oc1cccc(/C=N/Nc2cc(C(F)(F)F)nc3c(C(F)(F)F)cccc23)c1"
  MIC: "12.5 µM"
- SMILES STR: "FC(F)(F)c1cc(N/N=C/c2cccnc2)c2cccc(C(F)(F)F)c2n1"
  MIC: "> 50 µM"
- SMILES STR: "FC(F)(F)c1cc(N/N=C/c2cocc2Br)c2cccc(C(F)(F)F)c2n1"
  MIC: "> 50 µM"

For every item in the list below, what is its measured MIC?
1. FC(F)(F)c1cc(N/N=C/c2ccc3c(c2)CCO3)c2cccc(C(F)(F)F)c2n1
2. CC(=O)OCc1ccc(/C=N/Nc2cc(C(F)(F)F)nc3c(C(F)(F)F)cccc23)o1

Result:
1. 12.5 µM
2. > 50 µM

For every item in the list below, what is its measured MIC?
1. COc1ccc(/C=N/Nc2cc(C(F)(F)F)nc3c(C(F)(F)F)cccc23)c(F)c1
2. NNC(=O)c1ccncc1
3. COc1ccc(/C=N/Nc2cc(C(F)(F)F)nc3c(C(F)(F)F)cccc23)cc1O

Result:
1. 6.25 µM
2. 12.5 µM
3. 12.5 µM

====

# System: Mycobacterium tuberculosis
# TEST PROTOCOL: Antituberculosis activity against multi drug-resistant Mycobacterium tuberculosis after 7 days using resazurin dye by broth microdilution assay
# Assay type: functional
# RUN CONDITIONS: 168 h
Give measured MIC for each item. Keep answers brief.

Illustrative cases are given below, each with its answer.
- SMILES STR: "Cc1cccc2c(/C=N/Nc3cc(C(F)(F)F)nc4c(C(F)(F)F)cccc34)c[nH]c12"
  PARAMETER: "MIC"
  RESULT: "12.5 µM"
- SMILES STR: "CCCCCNC(=O)NNc1cc(C(F)(F)F)nc2c(C(F)(F)F)cccc12"
  PARAMETER: "MIC"
  RESULT: "> 50 µM"
- SMILES STR: "Fc1ccccc1NC(=S)NNc1cc(C(F)(F)F)nc2c(C(F)(F)F)cccc12"
  PARAMETER: "MIC"
  RESULT: "> 50 µM"
- SMILES STR: "COc1ccccc1NC(=O)NNc1cc(C(F)(F)F)nc2c(C(F)(F)F)cccc12"
  PARAMETER: "MIC"
  RESULT: "12.5 µM"

Moving on to the next compound.
Ask: // fetch Mycobacterium tuberculosis MIC for "Cc1cc(C)cc(NC(=O)NNc2cc(C(F)(F)F)nc3c(C(F)(F)F)cccc23)c1"
Result: 6.25 µM
